The reported numbers originate from the supplement of paper PMC10307832.

Tested on: LOU-NH91
Test: relative viability (nuclei count vs DMSO), 5 days (fraction); higher = more cells survive
Settings: first compound 0.253 µM
test readout: relative viability
Reply with just the number.

Examples from the recorded data:
compound	observed value
C=C1C(=O)O[C@@H](CCCCCCCC)[C@@H]1C(=O)O [C-75] + Nc1ncn([C@H]2C[C@H](O)[C@@H](CO)O2)c(=O)n1 [Decitabine] (partner 2 µM)	0.734
Oc1nc(-c2ccc(C(F)(F)F)cc2)nc2c1CSCC2 [XAV939] + CC(C)C[C@H](NC(=O)[C@H](Cc1ccccc1)NC(=O)c1cnccn1)B(O)O [Bortezomib] (partner 0.002 µM)	0.464
C=C1C(=O)O[C@@H](CCCCCCCC)[C@@H]1C(=O)O [C-75] + O=C(c1cc(Cc2n[nH]c(=O)c3ccccc23)ccc1F)N1CCN(C(=O)C2CC2)CC1 [Olaparib] (partner 8 µM)	0.786
Oc1nc(-c2ccc(C(F)(F)F)cc2)nc2c1CSCC2 [XAV939] + Cc1cc(Nc2cc(N3CCN(C)CC3)nc(Sc3ccc(NC(=O)C4CC4)cc3)n2)n[nH]1 [Tozasertib] (partner 0.1 µM)	0.663
Oc1nc(-c2ccc(C(F)(F)F)cc2)nc2c1CSCC2 [XAV939] + COc1cccc2cc(-c3nc([C@H]4CC[C@H](C(=O)O)CC4)n4ncnc(N)c34)[nH]c12 [OSI-027] (partner 0.5 µM)	0.662
C=C1C(=O)O[C@@H](CCCCCCCC)[C@@H]1C(=O)O [C-75] + CS(=O)(=O)N1CCN(Cc2cc3nc(-c4cccc5[nH]ncc45)nc(N4CCOCC4)c3s2)CC1 [Pictilisib] (partner 1 µM)	0.602
Oc1nc(-c2ccc(C(F)(F)F)cc2)nc2c1CSCC2 [XAV939] + CCNC(=O)c1noc(-c2cc(C(C)C)c(O)cc2O)c1-c1ccc(CN2CCOCC2)cc1 [Luminespib] (partner 0.01 µM)	0.337
C=C1C(=O)O[C@@H](CCCCCCCC)[C@@H]1C(=O)O [C-75] + CC1(C)CCC(c2ccc(Cl)cc2)=C(CN2CCN(c3ccc(C(=O)NS(=O)(=O)c4ccc(N[C@H](CCN5CCOCC5)CSc5ccccc5)c(S(=O)(=O)C(F)(F)F)c4)cc3)CC2)C1 [Navitoclax] (partner 0.5 µM)	0.679

# query: relative viability of entry Oc1nc(-c2ccc(C(F)(F)F)cc2)nc2c1CSCC2 [XAV939] + C[C@]1(O)C[C@@H](c2nc(-c3ccc4ccc(-c5ccccc5)nc4c3)c3c(N)nccn32)C1 [Linsitinib] (partner 1 µM) 0.842

---

System: PC-3 [JPC-3]
Experiment: relative viability (nuclei count vs DMSO), 5 days (fraction); higher = more cells survive
Conditions: first compound 1 µM
test readout: relative viability
Please respond with just the number, no unit label.

Worked set:
compound	test system	relative viability
NC(=O)Nc1cc(-c2cccc(F)c2)sc1C(=O)N[C@H]1CCCNC1 [AZD7762] + Cc1cc(Nc2cc(N3CCN(C)CC3)nc(Sc3ccc(NC(=O)C4CC4)cc3)n2)n[nH]1 [Tozasertib] (partner 0.1 µM)	PC-3 [JPC-3]	0.85
NC(=O)Nc1cc(-c2cccc(F)c2)sc1C(=O)N[C@H]1CCCNC1 [AZD7762] + CS(=O)(=O)CCNCc1ccc(-c2ccc3ncnc(Nc4ccc(OCc5cccc(F)c5)c(Cl)c4)c3c2)o1 [Lapatinib] (partner 2 µM)	PC-3 [JPC-3]	0.432
NC(=O)Nc1cc(-c2cccc(F)c2)sc1C(=O)N[C@H]1CCCNC1 [AZD7762] + Cc1nc(Nc2ncc(C(=O)Nc3c(C)cccc3Cl)s2)cc(N2CCN(CCO)CC2)n1 [Dasatinib] (partner 0.075 µM)	PC-3 [JPC-3]	0.716
NC(=O)Nc1cc(-c2cccc(F)c2)sc1C(=O)N[C@H]1CCCNC1 [AZD7762] + Nc1nc2[nH]cc(CCc3ccc(C(=O)N[C@@H](CCC(=O)O)C(=O)O)cc3)c2c(=O)[nH]1 [Pemetrexed] (partner 0.2 µM)	PC-3 [JPC-3]	0.688
NC(=O)Nc1cc(-c2cccc(F)c2)sc1C(=O)N[C@H]1CCCNC1 [AZD7762] + Nc1ncn([C@H]2C[C@H](O)[C@@H](CO)O2)c(=O)n1 [Decitabine] (partner 2 µM)	PC-3 [JPC-3]	0.592

What does the record list as relative viability for NC(=O)Nc1cc(-c2cccc(F)c2)sc1C(=O)N[C@H]1CCCNC1 [AZD7762] + COc1cc2c(Oc3ccc(NC(=O)C4(C(=O)Nc5ccc(F)cc5)CC4)cc3F)ccnc2cc1OCCCN1CCOCC1 [Foretinib] (partner 0.25 µM) ? 1.02

---

Reported relative viability values are given for each entry in this list.
Tested on: NCI-H727
Assay: relative viability (nuclei count vs DMSO), 5 days (fraction); higher = more cells survive
Settings: first compound 0.01581 µM

Need relative viability, item CC1(C)CCC(c2ccc(Cl)cc2)=C(CN2CCN(c3ccc(C(=O)NS(=O)(=O)c4ccc(N[C@H](CCN5CCOCC5)CSc5ccccc5)c(S(=O)(=O)C(F)(F)F)c4)cc3)CC2)C1 [Navitoclax] + CCNC(=O)c1noc(-c2cc(C(C)C)c(O)cc2O)c1-c1ccc(CN2CCOCC2)cc1 [Luminespib] (partner 0.01 µM) 0.347

Reported relative viability for CC1(C)CCC(c2ccc(Cl)cc2)=C(CN2CCN(c3ccc(C(=O)NS(=O)(=O)c4ccc(N[C@H](CCN5CCOCC5)CSc5ccccc5)c(S(=O)(=O)C(F)(F)F)c4)cc3)CC2)C1 [Navitoclax] + COc1cc2c(Oc3ccc(NC(=O)C4(C(=O)Nc5ccc(F)cc5)CC4)cc3F)ccnc2cc1OCCCN1CCOCC1 [Foretinib] (partner 0.25 µM) : what is it? 0.902

What relative viability value was documented for this compound, CC1(C)CCC(c2ccc(Cl)cc2)=C(CN2CCN(c3ccc(C(=O)NS(=O)(=O)c4ccc(N[C@H](CCN5CCOCC5)CSc5ccccc5)c(S(=O)(=O)C(F)(F)F)c4)cc3)CC2)C1 [Navitoclax] + O=C(CCCCCCC(=O)Nc1ccccc1)NO [Vorinostat] (partner 1 µM) ? 1.34

May I ask what relative viability has been recorded for CC1(C)CCC(c2ccc(Cl)cc2)=C(CN2CCN(c3ccc(C(=O)NS(=O)(=O)c4ccc(N[C@H](CCN5CCOCC5)CSc5ccccc5)c(S(=O)(=O)C(F)(F)F)c4)cc3)CC2)C1 [Navitoclax] + N=C(N)NC(=N)NCCc1ccccc1 [Phenformin] (partner 250 µM) ? 0.804

---

System: NCI-H2126
Assay: relative viability (nuclei count vs DMSO), 5 days (fraction); higher = more cells survive
Conditions: first compound 0.005 µM
test readout: relative viability
Write the number on its own, no unit after it.

molecule	test readout	observed value
CC1(C)CCC(c2ccc(Cl)cc2)=C(CN2CCN(c3ccc(C(=O)NS(=O)(=O)c4ccc(N[C@H](CCN5CCOCC5)CSc5ccccc5)c(S(=O)(=O)C(F)(F)F)c4)cc3)CC2)C1 [Navitoclax] + Cc1cc(Nc2cc(N3CCN(C)CC3)nc(Sc3ccc(NC(=O)C4CC4)cc3)n2)n[nH]1 [Tozasertib] (partner 0.1 µM)	relative viability	0.817

Which relative viability value belongs to CC1(C)CCC(c2ccc(Cl)cc2)=C(CN2CCN(c3ccc(C(=O)NS(=O)(=O)c4ccc(N[C@H](CCN5CCOCC5)CSc5ccccc5)c(S(=O)(=O)C(F)(F)F)c4)cc3)CC2)C1 [Navitoclax] + CC(=O)Nc1cccc(-n2c(=O)n(C3CC3)c(=O)c3c(Nc4ccc(I)cc4F)n(C)c(=O)c(C)c32)c1 [Trametinib] (partner 0.02 µM) ? 0.554

Which relative viability value belongs to CC1(C)CCC(c2ccc(Cl)cc2)=C(CN2CCN(c3ccc(C(=O)NS(=O)(=O)c4ccc(N[C@H](CCN5CCOCC5)CSc5ccccc5)c(S(=O)(=O)C(F)(F)F)c4)cc3)CC2)C1 [Navitoclax] + COc1cccc2cc(-c3nc([C@H]4CC[C@H](C(=O)O)CC4)n4ncnc(N)c34)[nH]c12 [OSI-027] (partner 0.5 µM) ? 0.764

Please give the measured relative viability for this molecule: CC1(C)CCC(c2ccc(Cl)cc2)=C(CN2CCN(c3ccc(C(=O)NS(=O)(=O)c4ccc(N[C@H](CCN5CCOCC5)CSc5ccccc5)c(S(=O)(=O)C(F)(F)F)c4)cc3)CC2)C1 [Navitoclax] + Cc1nc(NC(=O)N2CCC[C@H]2C(N)=O)sc1-c1ccnc(C(C)(C)C(F)(F)F)c1 [Alpelisib] (partner 2 µM) 0.7

Need relative viability of CC1(C)CCC(c2ccc(Cl)cc2)=C(CN2CCN(c3ccc(C(=O)NS(=O)(=O)c4ccc(N[C@H](CCN5CCOCC5)CSc5ccccc5)c(S(=O)(=O)C(F)(F)F)c4)cc3)CC2)C1 [Navitoclax] + COc1cc2c(Oc3ccc(NC(=O)C4(C(=O)Nc5ccc(F)cc5)CC4)cc3F)ccnc2cc1OCCCN1CCOCC1 [Foretinib] (partner 0.25 µM) , thanks. 1.25
